Would you mind telling me the reported half-life of each entry?
RUN_DESCRIPTION: in vitro
Assay type: in vitro ADME
Design: dose or concentration left out as unconfirmed
RUN_PARAMETERS: simulated intestinal fluid (SIF) with pancreatin, pH 6.8, 37° C., § matrix is 100 fold dilution of standard SIF concentration, read-out: SIF t½ (converted)
Bridge positions count the residues as written; N and C are the ends. Square brackets hold non-standard residues; d marks the D form. Peptide text beside a SMILES is read from it. Trp(7-Me) = Cc1cccc2c(C[C@H](N)C(=O)O)c[nH]c12; 2Nal = N[C@@H](Cc1ccc2ccccc2c1)C(=O)O; AEF = NCCOc1ccc(C[C@H](N)C(=O)O)cc1; Cit = NC(=O)NCCC[C@H](N)C(=O)O; Pen = CC(C)(S)[C@H](N)C(=O)O; αMeK = C[C@](N)(CCCCN)C(=O)O; βAla = NCCC(=O)O
One number for each entry, in h.

Worked examples follow.
- COMPOUND: "CC(=O)NCCCC[C@H](NC(=O)[C@](C)(CC(C)C)NC(=O)[C@H](Cc1c[nH]c2cc(Cl)ccc12)NC(=O)[C@H](Cc1ccc(OCCN)cc1)NC(=O)[C@H]1NC(=O)[C@H](CCC(N)=O)NC(=O)[C@H](Cc2c[nH]c3ccccc23)NC(=O)[C@H]([C@@H](C)O)NC(=O)[C@H](CC(N)=O)NC(=O)[C@@H](NC(C)=O)C(C)(C)SSC1(C)C)C(=O)N[C@@H](CC(N)=O)C(=O)N[C@@H](CC(N)=O)C(N)=O"
  UNIT: "h"
  half-life: 17
- COMPOUND: "CC(=O)NCCCC[C@H](NC(=O)[C@](C)(CCCCN)NC(=O)[C@H](Cc1ccc2ccccc2c1)NC(=O)[C@H](Cc1ccc(OCCN)cc1)NC(=O)[C@H]1NC(=O)[C@H](CCCNC(N)=O)NC(=O)[C@H](Cc2c[nH]c3c(C)cccc23)NC(=O)[C@H]([C@@H](C)O)NC(=O)[C@H](CC(N)=O)NC(=O)[C@@H](NC(C)=O)C(C)(C)SSC1(C)C)C(=O)N[C@@H](CC(N)=O)C(=O)N[C@H](Cc1ccccc1)C(N)=O [compound 257] (Ac-[Pen]NT[Trp(7-Me)][Cit][Pen][AEF][2Nal][αMeK]K(Ac)N[dF]-NH2; disulfide 1-6)"
  UNIT: "h"
  half-life: 5

Give half-life for each of the items listed below.
1. CC(=O)NCCCC[C@@H]1NC(=O)[C@H](Cc2c[nH]c3c(C)cccc23)NC(=O)[C@H]([C@@H](C)O)NC(=O)[C@H](CC(N)=O)NC(=O)[C@@H](NC(C)=O)C(C)(C)SSC(C)(C)[C@@H](C(=O)N[C@@H](Cc2ccc(OCCN)cc2)C(=O)N[C@@H](Cc2ccc3ccccc3c2)C(=O)N[C@@](C)(CCCCN)C(=O)N[C@@H](CCCCNC(C)=O)C(=O)N[C@@H](CC(N)=O)C(=O)N[C@H](C(N)=O)C(C)C)NC1=O
2. CC(=O)NCCCC[C@@H]1NC(=O)[C@H](Cc2c[nH]c3c(C)cccc23)NC(=O)[C@H]([C@@H](C)O)NC(=O)[C@H](CC(N)=O)NC(=O)[C@@H](NC(C)=O)C(C)(C)SSC(C)(C)[C@@H](C(=O)N[C@@H](Cc2ccc(OCCN)cc2)C(=O)N[C@@H](Cc2ccc3ccccc3c2)C(=O)N[C@@](C)(CCCCN)C(=O)N[C@@H](CCCCNC(C)=O)C(=O)N[C@@H](CC(N)=O)C(=O)N2CCC[C@H]2C(N)=O)NC1=O
3. CC(=O)NCCCC[C@H](NC(=O)[C@](C)(CCCCN)NC(=O)[C@H](Cc1ccc2ccccc2c1)NC(=O)[C@H](Cc1ccc(OCCN)cc1)NC(=O)[C@H]1NC(=O)[C@H](CCCCNC(=O)CC(C)C)NC(=O)[C@H](Cc2c[nH]c3c(C)cccc23)NC(=O)[C@H]([C@@H](C)O)NC(=O)[C@H](CC(N)=O)NC(=O)[C@@H](NC(C)=O)C(C)(C)SSC1(C)C)C(=O)N[C@@H](CC(N)=O)C(=O)N[C@H](CC(C)C)C(N)=O
4. CC(=O)N[C@@H]1C(=O)N[C@@H](CC(N)=O)C(=O)N[C@@H]([C@@H](C)O)C(=O)N[C@@H](Cc2c[nH]c3c(C)cccc23)C(=O)N[C@@H](CCC(N)=O)C(=O)N[C@H](C(=O)N[C@@H](Cc2ccc(OCCN)cc2)C(=O)N[C@@H](Cc2ccc3ccccc3c2)C(=O)N[C@@](C)(CCCCN)C(=O)N[C@@H](CCCNC(N)=O)C(=O)NCCC(=O)NCCC(N)=O)C(C)(C)SSC1(C)C
5. CC(=O)NCCCC[C@H](NC(=O)[C@](C)(CCCCN)NC(=O)[C@H](Cc1ccc2ccccc2c1)NC(=O)[C@H](Cc1ccc(OCCN)cc1)NC(=O)[C@H]1NC(=O)[C@H](CCCNC(N)=O)NC(=O)[C@H](Cc2c[nH]c3c(C)cccc23)NC(=O)[C@H]([C@@H](C)O)NC(=O)[C@H](CC(N)=O)NC(=O)[C@@H](NC(C)=O)C(C)(C)SSC1(C)C)C(=O)NCCC(=O)NCCC(N)=O [compound 268] (Ac-[Pen]NT[Trp(7-Me)][Cit][Pen][AEF][2Nal][αMeK]K(Ac)[βAla][βAla]-NH2; disulfide 1-6)
6. CC(=O)NCCCC[C@H](NC(=O)[C@](C)(CC(C)C)NC(=O)[C@H](Cc1c[nH]c2cc(F)ccc12)NC(=O)[C@H](Cc1ccc(OCCN)cc1)NC(=O)[C@H]1NC(=O)[C@H](CCC(N)=O)NC(=O)[C@H](Cc2c[nH]c3ccccc23)NC(=O)[C@H]([C@@H](C)O)NC(=O)[C@H](CC(N)=O)NC(=O)[C@@H](NC(C)=O)C(C)(C)SSC1(C)C)C(=O)N[C@@H](CC(N)=O)C(=O)N[C@@H](CC(N)=O)C(N)=O
7. CC(=O)NCCCC[C@H](NC(=O)C1(NC(=O)[C@H](Cc2ccc3ccccc3c2)NC(=O)[C@H](Cc2ccc(OCCN)cc2)NC(=O)[C@H]2NC(=O)[C@H](CCC(N)=O)NC(=O)[C@H](Cc3c[nH]c4c(C)cccc34)NC(=O)[C@H]([C@@H](C)O)NC(=O)[C@H](CC(N)=O)NC(=O)[C@@H](NC(C)=O)C(C)(C)SSC2(C)C)CCCCC1)C(=O)N[C@@H](CC(N)=O)C(=O)NCCC(N)=O

1: 17; 2: 11; 3: 9; 4: 7; 5: 15; 6: 9; 7: 5

Entry source: patent US20260116921A1
